B1: STEAP1 (parent)
chain: WMLTRKQFGLLSFFFAVLHAIYSL

- Variants of: B1
- procedure details: protein stability index of a GFP-peptide fusion (GPS, HEK-293T) (PSI 1-6); higher = more stable;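 note: lentivirally expressed fusions sorted by FACS into six bins by GFP to DsRed ratio, PSI derived from sequencing read proportions per bin multiplied by bin number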
- assay conditions: c terminus: a fixed tail appended
quantity name: protein stability index
Answer with a number only.

A selection of reference data follows.
INSERT INTO assay_data (mutation_label, readout_number) VALUES
  ('G9H', 2),
  ('A20Y', 2.1),
  ('A16T', 2.63),
  ('T4N', 1.99);

I'd like to know its protein stability index. The variant in question is S23Q 1.39

Give the measured protein stability index of K6N . 2.32

State the recorded protein stability index for this entry: W1P 2.13

Need protein stability index of L10V , thanks. 1.52

Need protein stability index, item F8H 2.16

Return reported protein stability index; argument: Y22T 2.03

Param item = L11R ; retrieve measured protein stability index. 1.51

Reported protein stability index, variant L18Y : ____ 2.13

Consider the variant G9Q and give its measured protein stability index. 2.07

Given the variant F13K , what is its reported protein stability index? 2.38

Any idea what its protein stability index is? The variant is F14L 1.73

Reported protein stability index, variant L3T : ____ 2.36

// data source = the supplement of paper PMC10567573
